Just for reference, patent US10888544B2 is where these values come from.

Test: Phase 1 single dose pharmacokinetic study of eliglustat tartrate in severe renal impairment and matched normal renal function subjects (Example 3)
Type: in vivo, human
Conditions: both sexes, human, plasma, po, 100 mg, CYP2D6 EM, healthy, N=7; single oral 100 mg eliglustat tartrate; plasma; read-out: Cmax, mean ± SD
Protocol: A phase 1, open-label, 2-stage, pharmacokinetic and tolerability study of single dose eliglustat tartrate in subjects with renal impairment (RI) (mild, moderate, and severe) and subjects with normal renal function, matched to RI subjects by age, weight, and cytochrome P450 [CYP] […] Eliglustat concentrations in plasma were determined using a validated liquid chromatography tandem mass spectrometry method with a lower limit of quantification (LLOQ) of 0.2 ng/mL. […]
Measure name: Cmax

1) CCCCCCCC(=O)N[C@H](CN1CCCC1)[C@H](O)c1ccc2c(c1)OCCO2
0.0176 µg/mL
